Attribute: fold induction at 1 µM
- Test system: Ucp1
- experiment: UCP1 luciferase assay (Ucp1 up-regulation in differentiated inguinal adipocytes of Ucp1-luciferase knock-in mice)
- Type: cell-based
- conditions used: Mus musculus, Adipocyte, 48 h; at 1 μM; 2 days treatment; luciferase activity; read-out: Ucp1 activation fold/corresponding concentration
No unit in the answer, only the number.

[[record]]
smiles_record = "COc1cccc(-c2csc(Nc3ccccn3)n2)c1"
test_result = 2.8

[[record]]
smiles_record = "CC(C)Oc1ccc(-c2csc(Nc3ccccn3)n2)cc1"
test_result = 2

[[record]]
smiles_record = "Oc1ccc(-c2csc(Nc3ccccn3)n2)cc1"
test_result = 3.3

[[record]]
smiles_record = "Fc1ccc(-c2csc(Nc3ccccn3)n2)cc1"
test_result = 3.9

[[record]]
smiles_record = "CCNC(=O)c1ccc(-c2csc(Nc3ccccn3)n2)cc1"
test_result = 3

[[record]]
smiles_record = "COc1ccc(-c2csc(Nc3ncccc3C)n2)cc1OC"
test_result = 1.2


Input COc1ccc(-c2csc(Nc3ccc(C)cn3)n2)cc1OC . Output fold induction at 1 µM: 2

According to the records, this molecule O=C(Nc1cccnc1)c1ccc(-c2csc(Nc3ccccn3)n2)cc1 displays fold induction at 1 µM of 1.1

For record COc1ccc(-c2csc(Nc3cc(C)ccn3)n2)cc1OC the listed fold induction at 1 µM is 1.1

The value of fold induction at 1 µM measured for the molecule c1ccc(Nc2nc(-c3ccccn3)cs2)nc1 turned out to be 3.3

Summary for this molecule, CCCCOc1ccc(-c2csc(Nc3ccccn3)n2)cc1 : fold induction at 1 µM is 2.8

Sample c1ccc(Nc2nc(-c3ccc(CN4CCOCC4)cc3)cs2)nc1 ; fold induction at 1 µM observed: 3.9

fold induction at 1 µM recorded for this molecule, C#Cc1ccc(-c2csc(Nc3ccccn3)n2)cc1 , is 2.3

Reported fold induction at 1 µM ( c1ccc(Nc2nc(-c3ccc4c(c3)CCC4)cs2)nc1 ) = 2

So, CNc1nc(-c2ccc(OC)c(OC)c2)cs1 ? Its fold induction at 1 µM was 1.1

// field: fold induction at 1 µM; key: c1ccc(Nc2nc(-c3cccnc3)cs2)nc1 ; value = 3.6

----------
- System: Ucp1
- experiment: UCP1 luciferase assay (Ucp1 up-regulation in differentiated inguinal adipocytes of Ucp1-luciferase knock-in mice)
- Type: cell-based
- conditions used: Mus musculus, Adipocyte, 48 h; at 3 μM; 2 days treatment; luciferase activity; read-out: Ucp1 activation fold/corresponding concentration
Classification field: enter 1 (yes) for fold induction at 3 µM values not below 2, 0 (no) for values below it.

Example cases with answers are listed next.
[[record]]
smiles_record = "COc1cc(Br)ccc1-c1csc(Nc2ccccn2)n1"
category = "0 (no)"

[[record]]
smiles_record = "Clc1cccc(-c2csc(Nc3ccccn3)n2)c1Cl"
category = "0 (no)"

[[record]]
smiles_record = "O=C(Nc1ccccc1)c1ccc(-c2csc(Nc3ccccn3)n2)cc1"
category = "0 (no)"

[[record]]
smiles_record = "c1ccc(Nc2nc(-c3ccncc3)cs2)nc1"
category = "1 (yes)"

[[record]]
smiles_record = "Cc1cc(-c2csc(Nc3ccccn3)n2)ccc1N"
category = "1 (yes)"


Turning now to a further compound:
# check: fold induction at 3 µM of N#Cc1cccc(-c2csc(Nc3ccccn3)n2)c1 is greater than or equal to 2 1 (yes)
